Data provenance: paper PMC11555173

# targetSystem: human P2X1 (Homo sapiens, UniProt P51575)
# Sequence (P51575 whole entry): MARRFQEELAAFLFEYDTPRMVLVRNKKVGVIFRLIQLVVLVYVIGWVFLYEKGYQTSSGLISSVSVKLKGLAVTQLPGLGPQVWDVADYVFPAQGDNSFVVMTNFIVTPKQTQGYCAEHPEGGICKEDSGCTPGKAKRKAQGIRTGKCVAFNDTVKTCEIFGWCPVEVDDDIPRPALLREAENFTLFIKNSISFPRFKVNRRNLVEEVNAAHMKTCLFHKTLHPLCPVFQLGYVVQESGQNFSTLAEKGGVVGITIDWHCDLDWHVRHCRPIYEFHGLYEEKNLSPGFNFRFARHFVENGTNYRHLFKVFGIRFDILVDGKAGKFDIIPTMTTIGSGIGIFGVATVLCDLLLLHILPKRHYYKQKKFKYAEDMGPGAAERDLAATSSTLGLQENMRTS
# method: Calcium influx assay, 1321N1 astrocytoma cells stably expressing human P2X1 receptor
metric: IC50

INSERT INTO assay_data (molecule, targetsystem, result) VALUES
  ('Cc1nsc(-c2ccc(C)c(NCC(=O)N3CCc4c3cccc4[C@](C)(O)CO)c2)n1 [PSB-OR-2020]', 'human P2X1 (Homo sapiens, UniProt P51575)', '> 10 µM');

###

Measured Kd accompanies every entry in the list below.
# targetSystem: human P2X4 receptor (Homo sapiens, UniProt Q99571)
# method: [3H]PSB-OR-2020 radioligand binding assay, HEK293 cell membranes expressing human P2X4 receptor
# Parameters: expressed in transfected cells; host or cells: HEK293 cells, transient transfection (pQCXIN; pcDNA3.1(-) was also tried)
# details: vs. [3H]PSB-OR-2020 (10 nM); HEK293 membranes, human P2X4; read-out: KD value, homologous competition binding
metric: Kd

INSERT INTO assay_data (compound, result) VALUES
  ('Cc1nsc(-c2ccc(C)c(NCC(=O)N3CCc4c3cccc4[C@](C)(O)CO)c2)n1', '20.4 nM'),
  ('[3H]c1cc2c(c([C@](C)(O)CO)c1)CCN2C(=O)CNc1cc(-c2nc(C)ns2)c([3H])cc1C [[^3H]PSB-OR-2020]', '20.4 nM');

###

# targetSystem: human P2X4 receptor (Homo sapiens, UniProt Q99571)
# Sequence (Q99571 1-388): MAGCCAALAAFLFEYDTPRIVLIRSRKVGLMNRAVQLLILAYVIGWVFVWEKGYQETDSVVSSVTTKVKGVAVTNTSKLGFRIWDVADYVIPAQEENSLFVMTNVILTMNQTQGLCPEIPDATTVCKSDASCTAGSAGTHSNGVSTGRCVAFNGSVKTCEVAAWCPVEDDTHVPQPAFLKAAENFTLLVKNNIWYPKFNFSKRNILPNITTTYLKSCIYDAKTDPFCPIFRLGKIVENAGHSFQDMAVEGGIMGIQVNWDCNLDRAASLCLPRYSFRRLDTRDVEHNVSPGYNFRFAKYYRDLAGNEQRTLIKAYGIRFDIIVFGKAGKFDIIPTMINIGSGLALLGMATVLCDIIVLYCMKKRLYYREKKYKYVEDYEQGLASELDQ
# method: Calcium influx assay, 1321N1 astrocytoma cells stably expressing human P2X4 receptor
# Assay type: cell-based
# Parameters: expressed in transfected cells
# details: read-out: IC50 ± SEM, inhibition of ATP-induced Ca2+ influx
metric: IC50 (nM)

INSERT INTO measurements (molecule, metric, quantitativereadout) VALUES
  ('Cc1nsc(-c2ccc(C)c(NCC(=O)N3CCc4c3cccc4[C@](C)(O)CO)c2)n1 [PSB-OR-2020]', 'IC50', 6.32);

###

# targetSystem: human P2X2 (Homo sapiens)
# Sequence (Q9UBL9 1-471): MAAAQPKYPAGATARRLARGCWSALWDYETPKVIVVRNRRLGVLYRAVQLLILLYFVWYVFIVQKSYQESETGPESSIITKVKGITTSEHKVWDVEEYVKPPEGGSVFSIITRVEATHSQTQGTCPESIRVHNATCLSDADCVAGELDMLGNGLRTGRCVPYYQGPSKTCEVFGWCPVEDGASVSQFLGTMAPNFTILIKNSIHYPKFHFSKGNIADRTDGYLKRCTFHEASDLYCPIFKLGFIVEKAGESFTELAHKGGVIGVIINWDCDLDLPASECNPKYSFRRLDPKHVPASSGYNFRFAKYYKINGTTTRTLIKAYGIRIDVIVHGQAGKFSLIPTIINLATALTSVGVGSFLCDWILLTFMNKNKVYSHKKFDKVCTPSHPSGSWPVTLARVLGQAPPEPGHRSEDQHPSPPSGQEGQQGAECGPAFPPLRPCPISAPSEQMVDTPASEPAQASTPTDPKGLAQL
# method: Calcium influx assay, 1321N1 astrocytoma cells stably expressing human P2X2 receptor
metric: IC50

INSERT INTO assay_data (molecule, metric, result) VALUES
  ('Cc1nsc(-c2ccc(C)c(NCC(=O)N3CCc4c3cccc4[C@](C)(O)CO)c2)n1', 'IC50', '> 10 µM');
